tested on: RIOK3; settings: Compound Concentration (nM):1000;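 note: KINOMEscan scanMAX binding as percent activity remaining versus control; lower means stronger binding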
Threshold 50%. Percent Control below it: class 1. Percent Control at it or above: class 0.

Worked examples follow.
MOLECULE: Cl.O=C(Nc1ccc(Oc2ccc3[nH]c(NC(=O)c4ccccc4)nc3c2)cc1)Nc1cc(C(F)(F)F)ccc1F [GW709042A]
CLASS ASSIGNMENT: class 1
--
MOLECULE: COc1cc(/C=N/Nc2ncnc3[nH]ncc23)ccc1O [GW578748X]
CLASS ASSIGNMENT: class 1

Ask: For Nc1ncnc2occ(-c3ccc(NC(=O)Nc4cc(C(F)(F)F)ccc4F)cc3)c12 [GW770249X] , is the recorded Percent Control below the cut-off of 50%?
Reply: class 1

Ask: For COc1ccccc1-c1cc(/C=C2\C(=O)Nc3ncc(Br)cc32)cc(Br)c1O [GW442130X] , is the recorded Percent Control below the cut-off of 50%?
Reply: class 0

Ask: For COc1cc(C)c(N(C)C(=O)CN(C)C)cc1Nc1nc(Nc2cccc(F)c2C(N)=O)c2cc[nH]c2n1 , is the recorded Percent Control below the cut-off of 50%?
Reply: class 0

Ask: For CCc1ccc(Oc2nccc(-c3c(-c4ccc(F)cc4)ncn3C3CCNCC3)n2)cc1 , is the recorded Percent Control below the cut-off of 50%?
Reply: class 0

Ask: For COc1ccc(COc2ccc(Cc3cnc(N)nc3N)cc2OC)cc1 [GW632580X] , is the recorded Percent Control below the cut-off of 50%?
Reply: class 0

Ask: For CN(C)CCNC(=O)Nc1ccc(N(C)c2ccnc(Nc3ccc(CS(C)(=O)=O)cc3)n2)cc1.Cl [GW830900A] , is the recorded Percent Control below the cut-off of 50%?
Reply: class 1

====

Each item that follows carries a reported Percent Control.
test system: ALK(L1196M); conditions: Compound Concentration (nM):1000
Write it as a number; the unit % goes unstated.

Completed entries (count: 7):
COMPOUND: C[C@@H](Oc1cc(-n2cnc3ccc(OC4CCN(C)CC4)cc32)sc1C(N)=O)c1ccccc1Cl [GSK579289A]
UNITS LABEL: %
Percent Control: 81

COMPOUND: NS(=O)(=O)c1ccc(N/N=C2\C(=O)Nc3ccc(Cl)cc32)cc1 [GW280670X]
UNITS LABEL: %
Percent Control: 100

COMPOUND: CN(C)c1cc2c(Nc3ccc4c(cnn4Cc4ccccc4)c3)ncnc2cn1 [GW282974X]
UNITS LABEL: %
Percent Control: 94

COMPOUND: NS(=O)(=O)c1ccc(N/N=C2\C(=O)Nc3ccc(-c4cnco4)cc32)cc1
UNITS LABEL: %
Percent Control: 100

COMPOUND: COc1cc2ncn(-c3cc(O[C@H](C)c4ccccc4Cl)c(C(N)=O)s3)c2cc1OC [GSK237701A]
UNITS LABEL: %
Percent Control: 94

COMPOUND: O=C(Nc1n[nH]c2nc(-c3ccc(O)cc3)c(Br)cc12)C1CC1
UNITS LABEL: %
Percent Control: 87

COMPOUND: COc1cc(C)c(N(C)C(=O)CN(C)C)cc1Nc1nc(Nc2cccc(F)c2C(N)=O)c2cc[nH]c2n1
UNITS LABEL: %
Percent Control: 13

Okay, next one:
Ask: # lookup: Percent Control of CCS(=O)(=O)c1ccc(OC)c(Nc2ncc(-c3cccc(F)c3)o2)c1 [GW621970X]
Reply: 97

====

test system: CDK4-cyclinD3; details: Compound Concentration (nM):1000
Each item that follows carries a reported Percent Control.
Write it as a number; the unit % goes unstated.

Completed entries (count: 3):
COMPOUND: C[C@@H](Oc1cc(-n2cnc3ccc(OC4CCN(C)CC4)cc32)sc1C(N)=O)c1ccccc1Cl [GSK579289A]
TARGET SYSTEM: CDK4-cyclinD3
UNITS LABEL: %
Percent Control: 69
--
COMPOUND: CCn1c(-c2nonc2N)nc2c(C#CC(C)(C)O)nc(OCCNC)cc21.Cl
TARGET SYSTEM: CDK4-cyclinD3
UNITS LABEL: %
Percent Control: 92
--
COMPOUND: COc1cc(N2CCN(C(C)C)CC2)ccc1Nc1nc(Nc2ccc(F)cc2C(=O)NC[C@@H](O)CO)c2cc[nH]c2n1 [GSK1392956A]
TARGET SYSTEM: CDK4-cyclinD3
UNITS LABEL: %
Percent Control: 100

Okay, next one:
Ask: # lookup: Percent Control of CN1CCN(C(=O)c2ccc(NC(=O)Nc3ccc(N(C)c4ccnc(Nc5ccc(CS(C)(=O)=O)cc5)n4)cc3)cc2)CC1.Cl [GW830263A]
Reply: 89

====

test system: TNK2; settings: Compound Concentration (nM):1000
MEASURE: Percent Control (%)
Write it as a number; the unit % goes unstated.

Completed entries (count: 4):
COMPOUND: C[C@@H](Oc1cc(-n2cnc3ccc(OC4CCN(C)CC4)cc32)sc1C(N)=O)c1ccccc1Cl [GSK579289A]
RESULT NUMBER: 86

COMPOUND: COc1ccc2[nH]c3c4[nH]c5ccc(OC)cc5c4c4c(c3c2c1)C(=O)NC4=O [GW296115X]
RESULT NUMBER: 69

COMPOUND: O=C(Nc1n[nH]c2nc(-c3ccc(O)cc3)c(Br)cc12)C1CC1 [SB-725317]
RESULT NUMBER: 100

COMPOUND: Cl.O=C(O[C@H]1CN[C@H](C#Cc2cc3ncnc(Nc4ccc5c(cnn5Cc5ccccc5)c4)c3s2)C1)N1CCOCC1 [GSK200398A]
RESULT NUMBER: 97

Ask: # lookup: Percent Control of COc1ccc(COc2ccc(Cc3cnc(N)nc3N)cc2OC)cc1 [GW632580X]
Reply: 77

====

test system: WEE1; details: Compound Concentration (nM):1000
MEASURE: Percent Control

COMPOUND: O=C(Nc1n[nH]c2nc(-c3ccc(O)cc3)c(Br)cc12)C1CC1
Percent Control: 100%
--
COMPOUND: Nc1ncnc2occ(-c3ccc(NC(=O)Nc4cc(C(F)(F)F)ccc4F)cc3)c12 [GW770249X]
Percent Control: 100%
--
COMPOUND: COc1cc2ncnc(Nc3ccc4c(cnn4Cc4ccccc4)c3)c2cc1OC.Cl [GW282449A]
Percent Control: 100%

Ask: # lookup: Percent Control of CCS(=O)(=O)c1ccc(OC)c(Nc2ncc(-c3cccc(F)c3)o2)c1 [GW621970X]
Reply: 100%

Ask: # lookup: Percent Control of COc1cc(N2CCN(C(C)C)CC2)ccc1Nc1nc(Nc2ccc(F)cc2C(=O)NC[C@@H](O)CO)c2cc[nH]c2n1 [GSK1392956A]
Reply: 96%

Ask: # lookup: Percent Control of COc1cc(C=NNc2ncnc3c2cnn3-c2ccccc2)ccc1O [GW513184X]
Reply: 96%

Ask: # lookup: Percent Control of CCn1c(-c2nonc2N)nc2c(C#CC(C)(C)O)nc(OCCNC)cc21.Cl
Reply: 92%

Ask: # lookup: Percent Control of Cl.O=C(Nc1ccc(Oc2ccc3[nH]c(NC(=O)c4ccco4)nc3c2)cc1)Nc1cc(C(F)(F)F)ccc1F [GW683134A]
Reply: 100%

====

Each item that follows carries a reported Percent Control.
tested on: RSK3(Kin.Dom.1-N-terminal); construct: gene RPS6KA2; details: Compound Concentration (nM):1000
Write it as a number; the unit % goes unstated.

Completed entries (count: 8):
MOLECULE: CCn1c(-c2nonc2N)nc2c(C#CC(C)(C)O)nc(OCCNC)cc21.Cl [GSK949675]
UNITS LABEL: %
RESULT NUMBER: 99
--
MOLECULE: CN(C)c1cc2c(Nc3ccc4c(cnn4Cc4ccccc4)c3)ncnc2cn1 [GW282974X]
UNITS LABEL: %
RESULT NUMBER: 100
--
MOLECULE: COc1ccccc1-c1cc(/C=C2\C(=O)Nc3ncc(Br)cc32)cc(Br)c1O [GW442130X]
UNITS LABEL: %
RESULT NUMBER: 100
--
MOLECULE: COc1ccc2[nH]c3c4[nH]c5ccc(OC)cc5c4c4c(c3c2c1)C(=O)NC4=O [GW296115X]
UNITS LABEL: %
RESULT NUMBER: 28
--
MOLECULE: C/C(Nc1ccc(S(N)(=O)=O)cc1)=C1/C(=O)Nc2ccccc21 [GW335962X]
UNITS LABEL: %
RESULT NUMBER: 83
--
MOLECULE: O=C1Nc2ccc(C(=O)c3ccco3)cc2C1=Cc1cc(Cl)c(O)c(Cl)c1 [GW406108X]
UNITS LABEL: %
RESULT NUMBER: 74
--
MOLECULE: COc1cc(/C=N/Nc2ncnc3[nH]ncc23)ccc1O [GW578748X]
UNITS LABEL: %
RESULT NUMBER: 100
--
MOLECULE: COc1cc2ncn(-c3cc(O[C@H](C)c4ccccc4Cl)c(C(N)=O)s3)c2cc1OC [GSK237701A]
UNITS LABEL: %
RESULT NUMBER: 100

Okay, next one:
Ask: # lookup: Percent Control of Cc1cc(O)cc(C)c1/C=C/c1cncc(C(N)=O)c1 [GW435821X]
Reply: 100
